# TEST_DESCRIPTION: RCMB18 cell growth, single agent and combined, cisplatin and BGB IC40 combos (AID 1671462);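 note: cells exposed to compound for four days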
# CONDITIONS_USED: RCMB18 medulloblastoma cells, at 0.5 µM, stronger effect = higher value
PROPERTY_NAME: inhibition (%)
Reply with just the number (in %).

| COMPOUND | PROPERTY_NAME | UNITS_SYMBOL | ENDPOINT_RESULT |
| --- | --- | --- | --- |
| Nc1[nH]c(=O)ncc1F | inhibition | % | -4.87 |
| Nc1nc2c(ncn2COC(CO)CO)c(=O)[nH]1 | inhibition | % | 15.7 |
| CC(N)C12CC3CC(CC(C3)C1)C2 (stereo not drawn) | inhibition | % | -21.2 |
| CCn1cc(C(=O)O)c(=O)c2cc3c(cc21)OCO3 | inhibition | % | -3.66 |
| Nc1nc(=S)c2[nH]cnc2[nH]1 | inhibition | % | -16.7 |

inhibition for CCN1CCN(c2cc3c(cc2F)c(=O)c(C(=O)O)cn3C2CC2)CC1 ?
-17.8

inhibition for O=c1c(O)c(-c2ccc(O)c(O)c2)oc2cc(O)cc(O)c12 ?
8.96

inhibition for Cc1nc2ccc(CN(C)c3ccc(C(=O)N[C@@H](CCC(=O)O)C(=O)O)s3)cc2c(=O)[nH]1 ?
-20.8

inhibition for CN(C)c1ccc(C(=C2C=CC(=[N+](C)C)C=C2)c2ccc(N(C)C)cc2)cc1 ?
64.4

inhibition for C[C@H]1COc2c(C3(N)CC3)c(F)cc3c(=O)c(C(=O)O)cn1c23 ?
-18.8

====

# TEST_DESCRIPTION: reduced SW480 viability measured with CellTiter-Glo, NPC library, primary (AID 1117343)
# CONDITIONS_USED: CellTiter-Glo luminescence; at 20 µM (top of the series)
Activity calls are given as the source filed them.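 How the source made its calls: active means compounds that lower viability of the colon cancer cells in the luminescence readout, with no numeric limit stated; inactive means the rest.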
Form entry, call: pick from active, inactive

Field: outcome | Entry: CC1(C)O[C@@H]2C[C@H]3[C@@H]4CCC5=CC(=O)CC[C@]5(C)[C@@]4(F)[C@@H](O)C[C@]3(C)[C@]2(C(=O)CCl)O1
inactive

Field: outcome | Entry: CCO/C([O-])=N/c1c[n+](N2CCOCC2)no1
inactive

Field: outcome | Entry: Nc1ccc(C(=O)O)c(O)c1
inactive

====

Catalogue of fluorescence ratio readings, one per entry.
# TEST_DESCRIPTION: compounds distorting NS3 helicase fluorescence signal – biochemical, NIH Clinical Collection, artefact control for HCV NS3 helicase inhibitor project (AID 743272);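 note: HCV NS3 helicase with a Cy5 labelled single stranded DNA probe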
# CONDITIONS_USED: fluorescence interference counterscreen, HCV NS3 helicase assay; stronger effect = lower value
// no unit string in output, number only

| MOLECULE | ENDPOINT_RESULT |
| --- | --- |
| CCOc1cc(CC(=O)N[C@@H](CC(C)C)c2ccccc2N2CCCCC2)ccc1C(=O)O | 1.02 |

fluorescence ratio for CN(C)CC[C@@H](c1ccc(Cl)cc1)c1ccccn1 ?
0.91

fluorescence ratio for CC(C)[C@H](N)C(=O)OCCOCn1cnc2c(=O)[nH]c(N)nc21 ?
1.03

fluorescence ratio for Cc1ccsc1C(=CCCN1CCC[C@@H](C(=O)O)C1)c1sccc1C ?
0.96

fluorescence ratio for COc1ccccc1N1CCN(CC(O)COc2cccc3ccccc23)CC1 (stereo not given) ?
0.89

fluorescence ratio for Clc1ccccc1C(c1ccccc1)(c1ccccc1)n1ccnc1 ?
0.9

====

# TEST_DESCRIPTION: yeast 75Q aggregation reduction – 75Q-TubU reporter (AID 1593)
# CONDITIONS_USED: Yeast 75Q polyglutamine aggregation reporter
Catalogue of score readings, one per entry.
// no unit string in output, number only

Below, each entry is followed by its recorded score result.
| MOLECULE | score |
| --- | --- |
| NC(N)=NS(=O)(=O)c1ccc(N)cc1 | 1.49 |
| COc1cccc(OC)c1C(=O)N[C@@H]1C(=O)N2[C@@H]1SC(C)(C)[C@@H]2C(=O)O | 1.48 |
| Cn1c(=O)c2c(ncn2CC(O)CO)n(C)c1=O (stereo unspecified) | 1.08 |
| Cc1c(NC(C)C)c(=O)n(-c2ccccc2)n1C | 1.54 |
| CCn1cc(C(=O)O)c(=O)c2cnc(N3CCCC3)nc21 | 0.98 |

score for NC(Cc1ccc(Cl)cc1)C(=O)O (stereo unspecified) ?
1.27

====

# TEST_DESCRIPTION: blockers of cytochrome c efflux from mitochondria – biochemical, purified mitochondria (AID 1603);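 note: mouse liver mitochondria challenged with calcium chloride; signal normalized to the plate average as 100%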
# CONDITIONS_USED: stronger effect = lower value
Catalogue of cytochrome c release ratio readings, one per entry.
// no unit string in output, number only

Below, each entry is followed by its recorded cytochrome c release ratio result.
| COMPOUND | PROPERTY_NAME | ENDPOINT_RESULT |
| --- | --- | --- |
| Nc1c(Br)cc(Br)cc1CNC1CCC(O)CC1 (configuration not stated) | cytochrome c release ratio | 1.08 |
| CCCc1ncc(C[n+]2ccccc2C)c(N)n1 | cytochrome c release ratio | 0.95 |
| CC(C)(C)CC(C)(C)c1ccc(O)c(Cc2ccc(Cl)cc2Cl)c1 | cytochrome c release ratio | 0.8 |
| NCCCC[C@H](N[C@@H](CCc1ccccc1)C(=O)O)C(=O)N1CCC[C@H]1C(=O)O | cytochrome c release ratio | 1.03 |
| CCCCC1C(=O)N(c2ccccc2)N(c2ccc(O)cc2)C1=O (configuration not stated) | cytochrome c release ratio | 0.98 |
| CCCCCCOc1ccccc1C(N)=O | cytochrome c release ratio | 1.11 |

cytochrome c release ratio for CN(C)[C@@H]1C(=O)C(C(N)=O)=C(O)[C@@]2(O)C(=O)C3=C(O)c4c(O)ccc(Cl)c4[C@@H](O)[C@H]3C[C@@H]12 ?
2.6

cytochrome c release ratio for CCN(CCCCOC(=O)c1ccc(OC)c(OC)c1)C(C)Cc1ccc(OC)cc1 (configuration not stated) ?
0.92

cytochrome c release ratio for NS(=O)(=O)c1cc(C(=O)O)c(NCc2ccco2)cc1Cl ?
0.82

====

Catalogue of normalised cell number readings, one per entry.
# TEST_DESCRIPTION: EMT-state selective cytotoxicity in co-culture – imaging, PC-3E GFP, TEM4-18 mCherry, primary screen (AID 1345086);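 note: cells exposed to compound for 72 h before imaging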
# CONDITIONS_USED: PC-3E GFP / TEM4-18 mCherry co-culture, imaging cell counts; measured here: mesenchymal TEM4-18 mCherry cell survival; at 1 µM
// no unit string in output, number only

| MOLECULE | normalised cell number |
| --- | --- |
| Cn1c(=O)c2c(ncn2C)n(C)c1=O | 1.14 |

normalised cell number for Nc1ccc(S(=O)(=O)Nc2cnc3ccccc3n2)cc1 ?
1.11

normalised cell number for CCN(CC)C(=O)c1cccc(C)c1 ?
1.19

====

# TEST_DESCRIPTION: compounds altering Cy5-DNA-NS3h complex signal – biochemical, LOPAC1280, artefact control for HCV NS3 helicase inhibitor project (AID 687037)
# CONDITIONS_USED: Cy5-DNA-NS3h complex fluorescence interference counterscreen
Catalogue of fluorescence ratio (interference) readings, one per entry.
// no unit string in output, number only

| MOLECULE | fluorescence ratio (interference) |
| --- | --- |
| COc1cc2nc(N3CCN(C(=O)C4COc5ccccc5O4)CC3)nc(N)c2cc1OC (stereo unspecified) | 1 |
| O=c1c(O)c(-c2ccc(O)c(O)c2)oc2cc(O)cc(O)c12 | 0.9 |
| O=C(c1ccc(F)cc1)C1CCN(CCn2c(=O)[nH]c3ccccc3c2=O)CC1 | 1 |
| CCN(CC)CCOCCOC(=O)C1(c2ccccc2)CCCC1 | 1 |
| CC(=O)N[C@@H](CS)C(=O)O | 0.9 |
| Cc1[nH]c(=O)c(C#N)cc1-c1ccncc1 | 1 |
| CN(C)CCC=C1c2ccccc2C=Cc2ccccc21 | 1 |
| COCCc1ccc(OCC(O)CNC(C)C)cc1 (stereo unspecified) | 1 |
| COc1ccc(CN(CCN(C)C)c2ccccn2)cc1 | 1 |
| C[C@H]1c2cccc(O)c2C(O)=C2C(=O)[C@]3(O)C(O)=C(C(N)=O)C(=O)[C@@H](N(C)C)[C@@H]3[C@@H](O)[C@@H]21 | 1 |

fluorescence ratio (interference) for CN(C)CCCN1c2ccccc2Sc2ccccc21 ?
0.9

fluorescence ratio (interference) for Cc1oncc1C(=O)Nc1ccc(C(F)(F)F)cc1 ?
1

fluorescence ratio (interference) for COC(=O)[C@H]1[C@H]2C[C@@H]3c4[nH]c5cc(OC)ccc5c4CCN3C[C@H]2C[C@@H](OC(=O)c2cc(OC)c(OC)c(OC)c2)[C@@H]1OC ?
1

fluorescence ratio (interference) for C[C@]12CC[C@@H]3c4ccc(O)cc4CC[C@H]3[C@@H]1CCC2=O ?
1

fluorescence ratio (interference) for NC1CCN(c2cccc(Cl)n2)CC1 ?
1

fluorescence ratio (interference) for NC[C@H](O)c1ccc(O)c(O)c1 ?
0.9

fluorescence ratio (interference) for CC(=O)O[C@]1(C(C)=O)CC[C@H]2[C@@H]3C=C(Cl)C4=CC(=O)[C@@H]5C[C@@H]5[C@]4(C)[C@H]3CC[C@@]21C ?
0.9

fluorescence ratio (interference) for CN1CCN(C2=Nc3ccccc3Oc3ccc(Cl)cc32)CC1 ?
1

fluorescence ratio (interference) for CC(C(=O)O)c1ccc(CC2CCCC2=O)cc1 (stereo unspecified) ?
1

fluorescence ratio (interference) for CCCCC1C(=O)N(c2ccccc2)N(c2ccccc2)C1=O ?
1

Just for reference, PubChem BioAssay is where these values come from.
